// reported mean number of γH2AX foci per item
System: PC-3
Assay: γH2AX staining
Type: cell-based, human
Settings: PC-3, IC50 concentration, 24 h, foci per cell
Reply with just the number.

Solved entries:
[[record]]
molecule = "Cc1nn(-c2ccc(S(=O)(=O)N3CCCCC3)cc2)c2nn3nnnc3nc12 [MM139]"
assayed_system = "PC-3"
measured_result = 15.37

[[record]]
molecule = "Cc1nn(-c2ccc(S(=O)(=O)N3CCOCC3)cc2)c2nn3nnnc3nc12 [MM136]"
assayed_system = "PC-3"
measured_result = 14.71

[[record]]
molecule = "Cc1nn(-c2ccc(S(=O)(=O)NCCN3CCOCC3)cc2)c2nn3nnnc3nc12 [MM134]"
assayed_system = "PC-3"
measured_result = 25.8


// moving on: another record for mean number of γH2AX foci
Inquiry: Would you kindly share the measured mean number of γH2AX foci for Cc1nn(-c2ccc(S(=O)(=O)N3CCN(C)CC3)cc2)c2nn3nnnc3nc12 [MM137] ?
Reply text: 17.52

###

Assay: Alamar blue assay
Format: cell-based
Settings: human, BxPC-3 cells, BxPC-3, 3 µM
READOUT_LABEL: viability at 24 h, 3 µM (%)
The response must be a number in % with no trailing unit.

Inquiry: Fill in: viability at 24 h, 3 µM of "Cc1nn(-c2ccc(S(=O)(=O)N3CCCCC3)cc2)c2nn3nnnc3nc12" is ___
Reply text: 75.3

###

Test system: PC-3
Test: γH2AX staining
Type: cell-based, human
Conditions: PC-3, IC50 concentration, 24 h, foci per cell
Overview of recorded median number of γH2AX foci for various molecules
The reply should be a number, written without any unit.

[[record]]
entry_smiles = "Cc1nn(-c2ccc(S(=O)(=O)N3CCCCC3)cc2)c2nn3nnnc3nc12"
measured_result = 12

[[record]]
entry_smiles = "Cc1nn(-c2ccc(S(=O)(=O)NCCN3CCOCC3)cc2)c2nn3nnnc3nc12"
measured_result = 21

[[record]]
entry_smiles = "Cc1nn(-c2ccc(S(=O)(=O)N3CCN(C)CC3)cc2)c2nn3nnnc3nc12"
measured_result = 15


Now look at this one.
Inquiry: Using the record for "Cc1nn(-c2ccc(S(=O)(=O)N3CCOCC3)cc2)c2nn3nnnc3nc12" , report its median number of γH2AX foci.
Reply text: 11

###

List of mean tail DNA % values.
Tested on: WI-38
Experiment: Alkaline comet assay
Assay type: cell-based, human
Conditions: WI-38, alkaline, IC50 concentration, 24 h
Experimental: The alkaline version of the comet assay was performed according to Singh et al. (1988), with modifications. BxPC-3 and PC-3 cancer cells and normal human fibroblasts (WI-38) were seeded at a density of 1.2 × 10^5/mL onto 12-well plates. […] The experimental design included negative controls (cells treated with DMSO at 0.4% for 24 h at 37 °C). Cells were left for incubation for another 24 h (37 °C; 5% CO2). […]
Field note: include the unit after the figure.

Use the examples below as a reference point.
[[record]]
molecule = "Cc1nn(-c2ccc(S(=O)(=O)N3CCOCC3)cc2)c2nn3nnnc3nc12 [MM136]"
measured_result = "0.72%"

[[record]]
molecule = "Cc1nn(-c2ccc(S(=O)(=O)N3CCCCC3)cc2)c2nn3nnnc3nc12 [MM139]"
measured_result = "2.97%"

[[record]]
molecule = "Cc1nn(-c2ccc(S(=O)(=O)NCCN3CCOCC3)cc2)c2nn3nnnc3nc12 [MM134]"
measured_result = "4.19%"


Consider the additional molecule presented here.
Inquiry: Value lookup for mean tail DNA %; key = Cc1nn(-c2ccc(S(=O)(=O)N3CCN(C)CC3)cc2)c2nn3nnnc3nc12 [MM137]
Reply text: 1.26%
